Source listed as the NIST ThermoML archive (doi:10.1021/je800248w).

- MEASUREMENT_PROTOCOL: molar heat capacity at constant pressure
- TEST_CONTEXT: 323.15 K; 101.3 kPa; Liquid; Small sample (50 mg) DSC
ATTRIBUTE_MEASURED: molar heat capacity at constant pressure (J/K/mol)
Reply numerically in J/K/mol, unit not repeated.

The examples below pair each entry with its known result.
| COMPOUND | molar heat capacity at constant pressure, J/K/mol |
| --- | --- |
| CCOS(=O)(=O)[O-].CCn1cc[n+](C)c1 [1-ethyl-3-methylimidazolium ethyl sulfate] | 392 |
| CCn1cc[n+](C)c1.O=S(=O)([O-])C(F)(F)F [1-ethyl-3-methylimidazolium trifluoromethanesulfonate] | 376 |
| CCn1cc[n+](C)c1.O=C([O-])C(F)(F)F [1-ethyl-3-methylimidazolium trifluoroacetate] | 328 |

Next:
query: // returns reported molar heat capacity at constant pressure for input `O`
result: 75

* * *

- MEASUREMENT_PROTOCOL: molar heat capacity at constant pressure
- TEST_CONTEXT: 293.15 K; 101.3 kPa; Liquid; Small sample (50 mg) DSC
Numbers after ± are expanded uncertainties.
The following compounds are shown together with reported molar heat capacity at constant pressure values.
Please provide the amount together with its unit, number first.

Example results:
| COMPOUND | molar heat capacity at constant pressure |
| --- | --- |
| O [water] | 75 ± 6 J/K/mol |
| CCOS(=O)(=O)[O-].CCn1cc[n+](C)c1 [1-ethyl-3-methylimidazolium ethyl sulfate] | 371 ± 30 J/K/mol |
| CCn1cc[n+](C)c1.O=C([O-])C(F)(F)F [1-ethyl-3-methylimidazolium trifluoroacetate] | 313 ± 25 J/K/mol |

Next, consider the following compound.
query: What does the data say about its molar heat capacity at constant pressure? Entry: CCn1cc[n+](C)c1.O=S(=O)([O-])C(F)(F)F [1-ethyl-3-methylimidazolium trifluoromethanesulfonate]
result: 358 ± 29 J/K/mol

* * *

// reported molar heat capacity at constant pressure per item
- MEASUREMENT_PROTOCOL: molar heat capacity at constant pressure
- TEST_CONTEXT: 313.15 K; 101.3 kPa; Liquid; Small sample (50 mg) DSC
# output: bare number, implied unit J/K/mol

Below, each entry is followed by its recorded molar heat capacity at constant pressure result.
| MOLECULE | RECORDED_NUMBER |
| --- | --- |
| CCn1cc[n+](C)c1.O=C([O-])C(F)(F)F [1-ethyl-3-methylimidazolium trifluoroacetate] | 324 |
| O [water] | 75 |

query: Param item = CCn1cc[n+](C)c1.O=S(=O)([O-])C(F)(F)F [1-ethyl-3-methylimidazolium trifluoromethanesulfonate] ; retrieve measured molar heat capacity at constant pressure.
result: 371

query: Request: CCOS(=O)(=O)[O-].CCn1cc[n+](C)c1 [1-ethyl-3-methylimidazolium ethyl sulfate]
result: 386
